Values from the supplement of paper PMC8728848

Entries and their glycan array binding signal (z-score)
target: Fuc(a1-2)[GalNAc(a1-3)]Gal(b1-4)[Fuc(a1-3)]GlcNAc(b1-3)GalNAc; test: glycan array binding signal (z-score within array); higher = stronger binding; conditions: glycan notation: IUPAC condensed, linker removed
Only a selection was taken, and the strongest signals are over-represented in it overall.
value_kind: glycan array binding signal (z-score)

• Epa2 (Candida glabrata) (protein) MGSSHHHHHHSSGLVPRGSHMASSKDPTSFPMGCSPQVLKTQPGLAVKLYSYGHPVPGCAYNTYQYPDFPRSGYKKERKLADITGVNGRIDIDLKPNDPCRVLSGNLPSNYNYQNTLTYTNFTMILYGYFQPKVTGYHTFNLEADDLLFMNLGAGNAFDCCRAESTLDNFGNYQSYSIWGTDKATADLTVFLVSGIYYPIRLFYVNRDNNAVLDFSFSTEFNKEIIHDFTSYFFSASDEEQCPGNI = 4.26
• Clone730PsrP (Streptococcus pneumoniae) (protein) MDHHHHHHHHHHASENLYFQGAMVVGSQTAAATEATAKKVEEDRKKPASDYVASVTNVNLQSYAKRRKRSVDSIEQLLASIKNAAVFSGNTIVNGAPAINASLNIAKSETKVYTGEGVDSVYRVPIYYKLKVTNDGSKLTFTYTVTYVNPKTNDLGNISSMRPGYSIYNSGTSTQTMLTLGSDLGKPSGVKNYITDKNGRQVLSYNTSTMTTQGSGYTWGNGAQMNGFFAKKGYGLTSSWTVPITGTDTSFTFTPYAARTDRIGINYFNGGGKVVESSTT = 0.059
• Vd2LysM (Verticillium dahliae) (protein) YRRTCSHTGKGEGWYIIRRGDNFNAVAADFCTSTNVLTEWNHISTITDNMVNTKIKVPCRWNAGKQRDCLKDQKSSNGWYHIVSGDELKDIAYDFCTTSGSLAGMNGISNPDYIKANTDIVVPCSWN = -0.592
